Source: the supplement of paper PMC7156485

tested on: TDF; assay: H1.0 immunofluorescence intensity relative to DMSO (% of DMSO); higher = stronger H1.0 induction, active = 120 or more; conditions: concentration: 10 µM; 24 h;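 also: TDF is a line of transformed human dermal fibroblasts of mesenchymal origin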
Response key: true (1) means H1.0 immunofluorescence intensity >= 100; false (0) means H1.0 immunofluorescence intensity < 100.

For orientation, consider the following solved cases.
INSERT INTO measurements (molecule, class) VALUES
  ('NC(=O)c1cnccn1 [Pyrazinecarboxamide]', 'false (0)'),
  ('COc1ccc2[nH]cc(CCNC(C)=O)c2c1', 'false (0)'),
  ('CN=C(NC#N)Nc1ccc(C2=NNC(=O)CC2C)cc1 (stereo not given)', 'false (0)'),
  ('O=[N+]([O-])c1cccc2cn[nH]c12', 'false (0)'),
  ('CNCCC=C1c2ccccc2CCc2ccccc21.Cl [Nortriptyline hydrochloride]', 'true (1)');

[Q] hey, is H1.0 immunofluorescence intensity for this one >= 100? NC(=O)c1nnn(Cc2cc(Cl)c(C(=O)c3ccc(Cl)cc3)c(Cl)c2)c1N
[A] false (0)

[Q] What about this molecule? N#Cc1ccc(N2N=C3c4ccc(C(=O)O)cc4CCC3C2C2CCCC2)cc1Cl (stereo not given)
[A] false (0)

[Q] Also check CCOC(=O)C1=C(C)NC(C)=C(C(=O)OC)C1c1cccc(Cl)c1Cl (stereo not given)
[A] false (0)

[Q] // query: N#CC(=C1Nc2ccccc2S1)c1ccnc(NCCc2cccnc2)n1
[A] true (1)

[Q] Could you do the same for NC(=O)Nc1sc(-c2ccc(F)cc2)cc1C(N)=O [IKK-2 Inhibitor IV] , please?
[A] false (0)

[Q] Lookup O=P(O)(O)C(O)(Cn1ccnc1)P(=O)(O)O
[A] false (0)

[Q] Now consider Cc1nc(Nc2ncc(C(=O)Nc3c(C)cccc3Cl)s2)cc(N2CCN(CCO)CC2)n1 and answer again.
[A] true (1)
